# TGT: T1, TNFR1 (Homo sapiens, UniProt P19438)
# T1 chain: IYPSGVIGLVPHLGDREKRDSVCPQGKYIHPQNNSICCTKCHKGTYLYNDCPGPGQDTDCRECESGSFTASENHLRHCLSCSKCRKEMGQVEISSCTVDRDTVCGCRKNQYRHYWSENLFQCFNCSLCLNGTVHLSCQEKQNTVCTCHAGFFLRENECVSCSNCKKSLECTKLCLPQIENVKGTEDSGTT
# PROTOCOL_DESCRIPTION: yeast display SC50
REPORTED_PROPERTY: apparent Kd (screen) (nM)
Quick reminder: number only, in nM, skip the unit.

Worked cases, answers included:
• V95F (designed binder) SMEEEVEKAAKEYEKKKKEAIEKHLEKLKAKDKEAAERFLKELEEAAKEYAKDEAKTMSEEEAKRRAKKYKEKVLLSELSEEEQKEIKEAEEKLFRTILKYVEEAAK = 13.8
• I87R (designed binder) SMEEEVEKAAKEYEKKKKEAIEKHLEKLKAKDKEAAERFLKELEEAAKEYAKDEAKTMSEEEAKRRAKKYKEKVLLSELSEEEQKERKEAEEKLVRTILKYVEEAAK = 16.7
• L75D (designed binder) SMEEEVEKAAKEYEKKKKEAIEKHLEKLKAKDKEAAERFLKELEEAAKEYAKDEAKTMSEEEAKRRAKKYKEKVDLSELSEEEQKEIKEAEEKLVRTILKYVEEAAK = 5.84

Turning now to a further binder:
I would be grateful if you could share the reported apparent Kd (screen) for L28F (designed binder) SMEEEVEKAAKEYEKKKKEAIEKHLEKFKAKDKEAAERFLKELEEAAKEYAKDEAKTMSEEEAKRRAKKYKEKVLLSELSEEEQKEIKEAEEKLVRTILKYVEEAAK . 0.446
